# Experimental protocol: clinical
# Condition parameters: female, human, in vivo, ip, 5 mg/m2, MRT
Property measured: MRT (h)
Respond with the bare value in h.

Exercise: Given the molecule CC[C@@]1(O)C(=O)OCc2c1cc1n(c2=O)Cc2cc3c(CN(C)C)c(O)ccc3nc2-1 [topotecan, Topotecan] , write its reported MRT.
Solution: 7

* * *

# Experimental protocol: clinical
# Condition parameters: female, human, in vivo, ip, T1/2
Property measured: half-life
I'd appreciate it if you wrote the number followed by its unit.

Exercise: Given the molecule CC[C@@]1(O)C(=O)OCc2c1cc1n(c2=O)Cc2cc3c(CN(C)C)c(O)ccc3nc2-1 , write its reported half-life.
Solution: 5.2 h
